- assay.target: hNurr1_RXRαFL (NURR1/RXRα heterodimer) (Homo sapiens, UniProt P19793+P43354)
- Sequence (P19793 whole entry, the tested form may be a part): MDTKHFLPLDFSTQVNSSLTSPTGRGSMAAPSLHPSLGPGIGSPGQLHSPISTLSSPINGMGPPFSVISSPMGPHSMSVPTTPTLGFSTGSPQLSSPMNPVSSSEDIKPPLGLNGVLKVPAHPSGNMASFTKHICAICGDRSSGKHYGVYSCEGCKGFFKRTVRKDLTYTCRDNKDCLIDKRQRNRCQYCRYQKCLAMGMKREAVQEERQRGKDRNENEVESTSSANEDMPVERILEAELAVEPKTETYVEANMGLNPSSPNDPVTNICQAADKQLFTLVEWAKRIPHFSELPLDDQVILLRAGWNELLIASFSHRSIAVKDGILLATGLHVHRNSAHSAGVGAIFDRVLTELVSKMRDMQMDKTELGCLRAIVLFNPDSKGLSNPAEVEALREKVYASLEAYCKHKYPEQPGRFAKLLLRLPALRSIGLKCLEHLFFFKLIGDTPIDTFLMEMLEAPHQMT
- Sequence (P43354 328-598): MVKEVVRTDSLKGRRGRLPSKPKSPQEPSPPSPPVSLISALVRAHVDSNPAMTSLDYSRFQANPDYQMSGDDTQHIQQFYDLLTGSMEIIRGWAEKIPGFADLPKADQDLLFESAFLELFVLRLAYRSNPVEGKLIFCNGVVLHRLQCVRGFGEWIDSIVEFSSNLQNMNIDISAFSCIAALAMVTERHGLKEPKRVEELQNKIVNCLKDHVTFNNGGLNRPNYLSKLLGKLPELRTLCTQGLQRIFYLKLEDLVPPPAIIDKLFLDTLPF
- protocol.summary: Transactivation assay in Cos-7 cells, NURR-1-Gal4 / RXRα, luciferase reporter
- measurement.parameters: Cos-7 cells, overnight incubation
Lab note: anything with EC50 below 300 nM is marked Condition met; values at 300 nM or higher are marked Condition not met.

Take a look at these entries with their results.
>>> print(df.to_string())
                                 cpd_smiles        label_value
0  CC(C)(C)c1cccc(S(=O)(=O)n2c(Cc3ccc(C(=O)NS(=O)(=O)c4ccccc4)cc3)cc3cc(C(F)(F)F)ccc32)c1      Condition met
1  O=C(O)c1ccc(Cc2cc3cc(Cl)ccc3n2S(=O)(=O)c2ccc3c(c2)OCCO3)s1      Condition met
2  CN1CCOc2ccc(S(=O)(=O)n3c(Cc4ccc(C(=O)O)o4)cc4cc(C(F)(F)F)ccc43)cc21      Condition met
3  O=C(O)c1ccc(Cc2cc3cc(C(F)(F)F)ccc3n2S(=O)(=O)c2ccc(N3CCOCC3)nc2)cc1  Condition not met

Prompt line: Strictly below 300 nM in EC50? `COC(=O)c1ccc(Cc2cc3cc(C(F)(F)F)ccc3n2S(=O)(=O)c2ccc(C(C)C)cc2)cc1F`
Response line: Condition not met

Prompt line: Item `O=C(O)c1ccc(Cc2cc3cc(C(F)(F)F)ccc3n2S(=O)(=O)c2ccc(Cl)cc2)cc1` : EC50 beneath 300 nM, strictly?
Response line: Condition met
